Value source: patent US20110165063A1

Biological target: T1, recombinant human IL-1α (human, UniProt P01583 113-271)
T1 construct: also called hIL-1α; rh IL-1α
T1 sequence: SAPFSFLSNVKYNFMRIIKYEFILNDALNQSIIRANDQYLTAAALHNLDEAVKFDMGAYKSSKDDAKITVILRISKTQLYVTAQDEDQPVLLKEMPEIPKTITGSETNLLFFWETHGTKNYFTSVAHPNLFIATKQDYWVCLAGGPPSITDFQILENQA
Assay: SPR (BIACORE), antibody captured, IL-1α in solution
Entries and their measured pKd follow.
Formally, pKd is defined as -log10 of the concentration c, with c in mol/L.

Task: Form field: reported pKd of h3D12.8 (antibody, V domains shown, also called humanized 3D12 antibody h3D12.8; VH H3D12VH.1A / VL H3D12VK.1C) VH: EIQLVQSGSELKKPGASVKVSCKASGYTFTNYGMNWVRQAPGQDLERMAWINTYTGESTYADDFKGRFVFSLDTSVSTAYLQISSLKAEDTAVYFCARGIYYYGSSYAMDYWGQGTTVTVSS VL: DIQMTQSPSSLSASVGDRVTITCRASQDISNCLNWYQQKPGKTPKLLIYYTSRLHSGVPSRFSGSGSGTDYTFTISSLQPEDIATYFCQQGKTLPYAFGQGTKLEIK
Output: 8.87

Task: What value of pKd has been reported for the following binder? h3D12.r16 (antibody, V domains shown) VH: EVQLVQSGAEVKKPGASVKVSCKASGYTFKYYGMNWVRQAPGQGLERMGWINTYTGQSTYADDFKGRVTFTLDTSTSTAYMELSSLRSEDTAVYYCARDIYYYGSDFAMDYWGQGTTVTVSS VL: DIQMTQSPSSLSASVGDRVTITCRASQDISNMLNWYQQKPGKAPKLLIYYTSRLKPGVPSRFSGSGSGTDYTFTISSLQPEDIATYFCQQGKTAPYTFGQGTKLEIK
Output: 10.51

Task: What does the data say about its pKd? Entry: h3D12.16 (antibody, V domains shown, also called humanized 3D12 antibody h3D12.16; VH H3D12VH.2A / VL H3D12VK.1C) VH: EIQLVQSGAEVKKPGASVKVSCKASGYTFTNYGMNWVRQAPGQDLERMAWINTYTGESTYADDFKGRFTFTLDTSTSTAYMELSSLRSEDTAVYFCARGIYYYGSSYAMDYWGQGTTVTVSS VL: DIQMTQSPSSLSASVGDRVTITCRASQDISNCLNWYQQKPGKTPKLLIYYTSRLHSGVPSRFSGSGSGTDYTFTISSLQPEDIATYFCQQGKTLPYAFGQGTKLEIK
Output: 8.68
